System: LAPC4 prostate cancer cells, which express the AKT1 E17K allele
experiment notes: Antiproliferative effects in LAPC4 cells (CellTiter Glo, 72 h)
Format: cell-based
measurement conditions: Homo sapiens, LAPC4, 72 h, read-out: LAPC4 proliferation IC50: GeoMean IC50
value type: IC50

// known answers, use as guide
Nc1cc(O)c(C=O)cc1C(=O)N[C@H]1CCc2cc(-n3c(-c4cccnc4N)nc4ccc(-n5cccn5)nc43)ccc21: 0.1 to 2 µM
CC(=O)Nc1ccc(C(=O)N[C@H]2CCc3cc(-n4c(-c5cccnc5N)nc5ccc(N6CCOCC6)nc54)ccc32)cc1C=O: 0.1 to 2 µM

Proceeding to the next compound to report its IC50.
Qu. GET /values?readout=IC50&item= `Nc1ncccc1-c1nc2ccc(-n3cccn3)nc2n1-c1ccc2c(c1)CC[C@@H]2NC(=O)c1csc(C=O)n1`
Ans. 0.1 to 2 µM
